Biological target: Cytochrome P450 2C19 (Homo sapiens)
Experiment: Cytochrome panel assay with activity outcomes
Conditions: recombinant CYP, pro-luciferin dealkylation, luminescence, p450-cyp2c19; series mostly up to 57.1 µM
The campaign covered roughly 16,000 compounds. About 5,800 (36%) were called active. Not shown: some 23% with an inconclusive outcome. The call rests on the fitted dose curve; in most records, active means well fitted curve in the direction sought with a large enough effect; inconclusive means small, poorly fitted or top-dose-only effect, or effect the other way; inactive means no such curve, though single readings can be large or run the other way. The list shows a part of the results.
Mark one answer only. Choices: Yes (active), No (inactive)

Solved cases below.
> print(dat)
                                   compound  assignedcategory
1  O=C(c1cnccn1)N1CCC[C@@]2(CCN(Cc3ccncc3)C2)C1               Yes
2  O=C(c1cc(C(F)(F)F)cc(C(F)(F)F)c1)N1CCC[C@@]2(CCN(Cc3ccncc3)C2)C1               Yes
3  O=C(c1cc(C(F)(F)F)cc(C(F)(F)F)c1)N1CCC[C@@]2(CCN(Cc3ccccc3)C2)C1                No
4  CCCc1nnc(NC(=O)CCC(=O)N2CCN(c3ccccn3)CC2)s1                No
5  O=C1NCC2=C1C(c1ccc(Br)cc1)Nc1ccccc1N2 (stereo unspecified)               Yes

For Cc1noc(C)c1-c1nccc(N(C)C)n1 , which call appears in the assay record? No

For Cc1ccc(-n2[nH]c(C)c(C=Nc3ccc4[nH]c(=O)[nH]c4c3)c2=O)cc1C , which call appears in the assay record? No

For COc1cccc(C(=O)N(Cc2ccccc2)Cc2cc3cc4c(cc3[nH]c2=O)OCCO4)c1 , which call appears in the assay record? Yes

For COc1cccc(-c2nccc(N(C)Cc3ccco3)n2)c1 , which call appears in the assay record? Yes

For O=C(c1cnccn1)N1CCC[C@@]2(CCN(c3ccncc3)C2)C1 , which call appears in the assay record? No

For Cc1noc(C)c1-c1nccc(N(C)Cc2ccco2)n1 , which call appears in the assay record? Yes

For N#Cc1ccc(CN2CC[C@@]3(CCCN(C(=O)c4cc(C(F)(F)F)cc(C(F)(F)F)c4)C3)C2)cc1 , which call appears in the assay record? No

For O=C(CCCn1c(=S)[nH]c2ccc(Br)cc2c1=O)N1CCN(c2ccccn2)CC1 , which call appears in the assay record? Yes

For O=C(CCCn1c(=S)[nH]c2ccc(Br)cc2c1=O)NCC1CCCO1 (stereo unspecified) , which call appears in the assay record? Yes

For Cc1ccc(NC(=O)N(Cc2ccco2)C(C)c2ccco2)cc1C (stereo unspecified) , which call appears in the assay record? Yes

For CCCn1c(C)nc2c(c1=O)c1nc3ccccc3nc1n2CCC1=CCCCC1 , which call appears in the assay record? Yes

* * *

Molecular target: Cytochrome P450 2C19 (Homo sapiens)
Experiment: Cytochrome panel assay with activity outcomes
Conditions: recombinant CYP, pro-luciferin dealkylation, luminescence, p450-cyp2c19; series mostly up to 57.1 µM
About 5,800 (36%) of roughly 16,000 compounds were called active. About 23% were inconclusive and are not listed. Calls follow the shape of the dose curve; as a rule, active = well fitted curve in the direction sought with a large enough effect; inconclusive = small, poorly fitted or top-dose-only effect, or effect the other way; inactive = no such curve, though single readings can be large or run the other way. This is one part of the list.
Mark one answer only. Choices: active, inactive

Solved cases below.
> print(dat)
                                   compound                   targetortestsystem  assignedcategory
1  OCC1CCCN(Cc2ccc(-c3ccccc3)cc2)C1 (stereo unspecified)  Cytochrome P450 2C19 (Homo sapiens)          inactive
2  COc1ccc(CCN2C(=NC(=O)CCC(=O)O)SC3CS(=O)(=O)CC32)cc1 (stereo unspecified)  Cytochrome P450 2C19 (Homo sapiens)            active
3  CN(C)c1ncc2nc(-c3ccc(F)cc3)c(=O)n(Cc3ccc(F)cc3)c2n1  Cytochrome P450 2C19 (Homo sapiens)          inactive
4              CCCOc1ccc(-c2nc(N)n[nH]2)cc1  Cytochrome P450 2C19 (Homo sapiens)          inactive
5                   Cc1cc(Nc2ccccc2)nc(N)n1  Cytochrome P450 2C19 (Homo sapiens)          inactive
6        Cc1nnc(SCc2nc(N)nc(Nc3ccccc3)n2)s1  Cytochrome P450 2C19 (Homo sapiens)            active
7  CCNc1ncc2nc(-c3ccccc3)c(=O)n(Cc3ccc(F)cc3)c2n1  Cytochrome P450 2C19 (Homo sapiens)          inactive
8                 S[C@@H]1CCCN(Cc2ccccc2)C1  Cytochrome P450 2C19 (Homo sapiens)            active

For O=C(CN(C(=O)CSc1nc2ccccc2o1)c1cccc(F)c1)NC1CCCCC1 , which call appears in the assay record? active

For O=[N+]([O-])c1ccc(-c2cnc(SCc3ccccc3Cl)[nH]2)cc1 , which call appears in the assay record? active

For Cc1ccc(S(=O)(=O)c2cc3ccccc3oc2=Nc2ccc3c(c2)OCO3)cc1 , which call appears in the assay record? active

* * *

Biological target: Cytochrome P450 2C19 (Homo sapiens)
Assay: Cytochrome panel assay with activity outcomes; on activity, negative = inhibition: on the % scale 0 is the no-effect control and ±100 the full control effect
Details: recombinant CYP, pro-luciferin dealkylation, luminescence, p450-cyp2c19; series mostly up to 57.1 µM
Hit rate of the full screen: of about 16,000 compounds, about 5,800 (36%) were called active. Not shown: some 23% with an inconclusive outcome. This is one part of the list.
Consider the following compounds and their measured activity, negative = inhibition readings.

Examples from the recorded data:
molecularString	measuredResult
N[C@@H](Cc1ccccc1)C(=O)O	8.56% [at 11.4 µM] (inactive)
O=C(O)[C@H](CCc1ccccc1)N1C(=O)c2ccccc2C1=O	-17.1% [at 11.4 µM] (inactive)
O=C(O)/C=C\C(=O)Nc1ccc2c(c1)C(=O)c1cc(F)ccc1-2	28.8% [at 11.4 µM] (inactive)
NS(=O)(=O)c1ccc(N=Nc2cc3ccccc3c(C(=O)O)c2O)cc1	-28.9% [at 11.4 µM] (inactive)
CCCNC(=O)OC[C@@H]1O[C@H](CCON=C(C)C)C=C[C@@H]1Oc1ccc(OC)cc1	-39.5% [at 11.4 µM] (inactive)
Cc1cc2nc3[nH]c4c(Cl)cc(Cl)cc4c3nc2cc1C	32.6% [at 11.4 µM] (inactive)
CC(C)(C)c1cc2c(O)c(c1)Cc1cc(C(C)(C)C)cc(c1O)Cc1cc(C(C)(C)C)cc(c1O)Cc1cc(C(C)(C)C)cc(c1O)Cc1cc(C(C)(C)C)cc(c1O)Cc1cc(C(C)(C)C)cc(c1O)Cc1cc(C(C)(C)C)cc(c1O)Cc1cc(C(C)(C)C)cc(c1O)C2	-8.28% [at 11.4 µM] (inactive)
CC1(C)N=C(N)N=C(N)N1CCCCc1ccccc1	24% [at 11.4 µM] (inactive)
Cn1ccnc1C[C@@](C)(O)c1ccccc1	-6.82% [at 11.4 µM] (inactive)
NN(CC(=O)O)CC(=O)O	14.5% [at 11.4 µM] (inactive)

Recorded activity, negative = inhibition (compound CC(C)(C)N1C(=O)[C@H]2[C@H]3[C@H](O)[C@H](O)C/C(=N/NC(=O)OCc4ccccc4)[C@H]3CC[C@@H]2C1=O ): 41% [at 11.4 µM] (inactive)

Recorded activity, negative = inhibition (compound CCOC(=O)C(C)(C)[C@H](O)C(C)C ): 3.67% [at 11.4 µM] (inactive)

Recorded activity, negative = inhibition (compound Cn1cnc([N+](=O)[O-])c1Sc1nc(N)nc2c1ncn2[C@H]1C[C@H](O)[C@@H](CO)O1 ): 8.27% [at 11.4 µM] (inactive)

* * *

Biological target: Cytochrome P450 2C19 (Homo sapiens)
Experiment: Cytochrome panel assay with activity outcomes
Conditions: recombinant CYP, pro-luciferin dealkylation, luminescence, p450-cyp2c19; series mostly up to 57.1 µM
Hit rate of the full screen: of about 16,000 compounds, about 5,800 (36%) were called active. Not shown: some 23% with an inconclusive outcome. Calls follow the shape of the dose curve; as a rule, active = well fitted curve in the direction sought with a large enough effect; inconclusive = small, poorly fitted or top-dose-only effect, or effect the other way; inactive = no such curve, though single readings can be large or run the other way. This is one part of the list.
Mark one answer only. Choices: Yes for active, No for inactive

Solved cases below.
> print(dat)
                            molecularstring                   targetortestsystem  assignedcategory
1  CC[N+](CC)(CC(=O)Nc1c(C)cccc1C)Cc1ccccc1  Cytochrome P450 2C19 (Homo sapiens)                No
2      COc1cc(/C=N/O)cc(Br)c1OCc1ccc(Cl)cc1  Cytochrome P450 2C19 (Homo sapiens)               Yes

For O=C(c1csnn1)N1CCC2(CC1)CN(Cc1cc(C(F)(F)F)cc(C(F)(F)F)c1)C2 , which call appears in the assay record? No

For CCOc1cc(/C=N/O)cc(Cl)c1OC , which call appears in the assay record? Yes

For C=CCNC(=O)C1CCN(S(=O)(=O)CC)CC1 , which call appears in the assay record? No

For CCCCC1=NN2C(=N)CC(=O)N=C2S1 , which call appears in the assay record? No

Values compiled from PubChem BioAssay AID1851.
